Target: Glutamate dehydrogenase isoform 1 (AtGDH1) (Arabidopsis thaliana)
Construct: full-length, 411 residues, homohexamer
Sequence (Q43314 whole entry, canonical isoform): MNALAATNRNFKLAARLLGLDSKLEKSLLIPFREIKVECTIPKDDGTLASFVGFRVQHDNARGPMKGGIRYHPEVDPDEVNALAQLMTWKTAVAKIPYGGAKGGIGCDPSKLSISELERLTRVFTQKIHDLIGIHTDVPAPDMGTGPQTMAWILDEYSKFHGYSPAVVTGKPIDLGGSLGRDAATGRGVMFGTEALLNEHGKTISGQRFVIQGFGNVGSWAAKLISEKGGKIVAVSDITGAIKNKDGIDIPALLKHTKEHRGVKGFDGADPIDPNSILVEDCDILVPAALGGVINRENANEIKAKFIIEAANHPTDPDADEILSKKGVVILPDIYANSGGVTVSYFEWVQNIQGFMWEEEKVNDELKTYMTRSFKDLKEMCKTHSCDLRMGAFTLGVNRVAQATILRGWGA
Assay: ITC (in presence of […] 2OG) and crystal structure at […] Å
quantity: Kd (µM)
Reply with just the number (in µM).

What Kd value was documented for this molecule, NC(=O)c1ccc[n+]([C@@H]2O[C@H](COP(=O)([O-])OP(=O)(O)OC[C@H]3O[C@@H](n4cnc5c(N)ncnc54)[C@H](O)[C@@H]3O)[C@@H](O)[C@H]2O)c1 ?
72
